Just for reference, the supplement of paper PMC10567573 is where these values come from.

B1: ALDH8A1 (parent)
chain: RVAKKLQSGLVWTNCWLIRELNLP

variants of: B1; test: protein stability index of a GFP-peptide fusion (GPS, HEK-293T) (PSI 1-6); higher = more stable; details: c terminus: a fixed tail appended;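 note: lentivirally expressed fusions sorted by FACS into six bins by GFP to DsRed ratio, PSI derived from sequencing read proportions per bin multiplied by bin number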
Use 3 as the dividing line for protein stability index, with the line itself on the YES side and lower values as NO.

{"columns": ["sequenceInput", "assignedCategory"],
 "data": [
  ["RVAKKLQSGLVWTNCWLIRELNLY [P24Y]", "YES"],
  ["RVAKKLQSGLVWTNCWLIFELNLP [R19F]", "NO"],
  ["RVAKKLQSGLVWTNCWLIRELDLP [N22D]", "YES"],
  ["RVAKKLQSGLVWTNCFLIRELNLP [W16F]", "NO"]
]}

hey, is protein stability index for this one >= 3? RVAKKMQSGLVWTNCWLIRELNLP [L6M]
YES

hey, is protein stability index for this one >= 3? RVAKKLQSGLVWTNCHLIRELNLP [W16H]
NO

hey, is protein stability index for this one >= 3? RVAKKLQSGLVWKNCWLIRELNLP [T13K]
NO

hey, is protein stability index for this one >= 3? RVAKKLQSGLVWTNCWLERELNLP [I18E]
NO

hey, is protein stability index for this one >= 3? RVAKKLQSGLVWTNAWLIRELNLP [C15A]
NO
